assay: HPLC-assay for stability of peptides in lyophilised formulation on storage for 3 months (Example 4); format: physicochemical; conditions: -20° C. +/- 5° C.; 3 months
Endpoint label: stability of peptides in formulation, 3 M

// worked examples, stability of peptides in formulation, 3 M included
> print(dat)
                           ordered.residues      observed.value
1  LTFGDVVAV (listed as Homo sapiens) [FABP7-001]  98.39 % of Initial
2  AMTQLLAGV (listed as Homo sapiens) [TNC-001, Tenascin C peptide]  98.57 % of Initial

Record summary for AIIDGVESV (listed as Homo sapiens) [PTP-003, Protein tyrosine phosphatase, receptor-type, Z polypeptide 1 peptide] : reported stability of peptides in formulation, 3 M = 98.57 % of Initial

// stability of peptides in formulation, 3 M value for KIQEILTQV (listed as Homo sapiens) [IGF2BP3-001] : 98.42 % of Initial

Item: NLDTLMTYV (listed as Homo sapiens) [NLGN4X-001, Neuroligin 4, X-linked peptide] | stability of peptides in formulation, 3 M: 98.62 % of Initial

All figures here come from patent US9289478B2.
